We begin with a simple list: items and their reported max response.
ASSAY_INFO: qHTS assay for small molecule antagonists of retinoid X receptor alpha signaling (AID 588546);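 note: cells stimulated with 9-cis-retinoic acid as agonist; % is set by controls: 0 for no effect and ±100 for the full control effect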
CONDITION_DESCRIPTION: HEK293T RXRa-UAS-bla, beta-lactamase ratio, antagonist mode; measured here: W530 green channel, cytotoxicity proxy
Results filed as inconclusive are left out.

# MOLECULE, VALUE_UNITS, max response
records = [
    ("CCC/C(=N\\OCC)C1=C(O)CC(CC(C)SCC)CC1=O (stereo unspecified)", "%", -1.11),
    ("CCOS(=O)(=O)OCC", "%", -7.24),
    ("COC(=O)N(OC)c1ccccc1COc1ccn(-c2ccc(Cl)cc2)n1", "%", -0.714),
    ("FC(F)(F)c1ccc(OCCCOc2c(Cl)cc(OCC=C(Cl)Cl)cc2Cl)nc1", "%", -14.8),
    ("C#CCN1C(=O)COc2cc(F)c(N3C(=O)C4=C(CCCC4)C3=O)cc21", "%", 5.82),
    ("O=C1NCCN1Cc1ccc(Cl)nc1", "%", -14.8),
]
